Below, Ki values reported for Glycogen synthase kinase-3 beta (Homo sapiens, UniProt P49841) across several publications.

Assay Glycogen synthase kinase-3 beta (Homo sapiens, UniProt P49841), sample COCc1cc(Nc2nc(-c3ccccc3)nc3ccccc23)[nH]n1 , Ki read: < 100 nM

Assay Glycogen synthase kinase-3 beta (Homo sapiens, UniProt P49841), sample Fc1cc(F)c(F)c(-c2cnoc2-c2c[nH]c3ncccc23)c1 , Ki read: 1000 to 12500 nM

Assay Glycogen synthase kinase-3 beta (Homo sapiens, UniProt P49841), sample Cc1nccn1-c1nc(Nc2[nH]nc3ccccc23)c2ccccc2n1 , Ki read: 100 to 1000 nM

Assay Glycogen synthase kinase-3 beta (Homo sapiens, UniProt P49841), sample Nc1nonc1-c1nc2ccccc2n1-c1ccccc1 , Ki read: < 1000 nM

Assay Glycogen synthase kinase-3 beta (Homo sapiens, UniProt P49841), sample O=C(Nc1cc(-n2cnc(Nc3ccccc3)n2)ccn1)C1CCCCC1 , Ki read: < 500 nM

Assay Glycogen synthase kinase-3 beta (Homo sapiens, UniProt P49841), sample Cc1ccc(-n2nc3c(N)n[nH]c3cc2=O)cc1 , Ki read: < 4000 nM

Assay Glycogen synthase kinase-3 beta (Homo sapiens, UniProt P49841), sample Fc1cc(Nc2nccc(-c3nccs3)n2)cc(F)c1F , Ki read: < 100 nM

Assay Glycogen synthase kinase-3 beta (Homo sapiens, UniProt P49841), sample c1ccc(Nc2ncn(-c3ccnc(N4CCCCCC4)c3)n2)cc1 , Ki read: 500 to 1000 nM

Assay Glycogen synthase kinase-3 beta (Homo sapiens, UniProt P49841), sample c1cncc(COc2cccc(Nc3nccc(-c4nccs4)n3)c2)c1 , Ki read: < 100 nM

Assay Glycogen synthase kinase-3 beta (Homo sapiens, UniProt P49841), sample Cc1cnc(Nc2cccc(-c3cccnc3)c2)nc1-c1nccs1 , Ki read: < 100 nM

Assay Glycogen synthase kinase-3 beta (Homo sapiens, UniProt P49841), sample Fc1cc(F)c2[nH]nc(Nc3nc(-c4ccccc4Br)nc4ccccc34)c2c1 , Ki read: < 100 nM

Assay Glycogen synthase kinase-3 beta (Homo sapiens, UniProt P49841), sample Cc1cc(Nc2nc(-c3ccc(Cl)c(Cl)c3)nc3ccccc23)[nH]n1 , Ki read: < 100 nM

Assay Glycogen synthase kinase-3 beta (Homo sapiens, UniProt P49841), sample COc1ccc(OC)c(-c2cccc(Nc3nccc(-c4nccs4)n3)c2)c1 , Ki read: < 100 nM

Assay Glycogen synthase kinase-3 beta (Homo sapiens, UniProt P49841), sample Cc1cc(Nc2nc(-c3ccccc3C(F)(F)F)nc3ccccc23)n[nH]1 , Ki read: < 100 nM

Assay Glycogen synthase kinase-3 beta (Homo sapiens, UniProt P49841), sample Cc1cc(Nc2nc(Nc3ccc(Cl)cc3)nc3ccccc23)n[nH]1 , Ki read: < 100 nM

Assay Glycogen synthase kinase-3 beta (Homo sapiens, UniProt P49841), sample CCc1ccc(Nc2nc(Nc3cc(C4CC4)[nH]n3)c3ccccc3n2)cc1 , Ki read: < 100 nM

Assay Glycogen synthase kinase-3 beta (Homo sapiens, UniProt P49841), sample Cc1cc(Nc2nc(-c3ccc(-c4ccccc4)cc3)nc3ccccc23)[nH]n1 , Ki read: < 100 nM

Assay Glycogen synthase kinase-3 beta (Homo sapiens, UniProt P49841), sample c1ccc(-c2cc(Nc3nc(-c4ccccc4)nc4ccccc34)[nH]n2)cc1 , Ki read: 100 to 1000 nM

Assay Glycogen synthase kinase-3 beta (Homo sapiens, UniProt P49841), sample c1cnc2[nH]cc(-c3oncc3C3CCCCC3)c2c1 , Ki read: 1000 to 12500 nM

Assay Glycogen synthase kinase-3 beta (Homo sapiens, UniProt P49841), sample Cc1nc(-c2ccccc2Cl)nc(Nc2n[nH]c3c(F)cccc23)c1C , Ki read: < 100 nM

Assay Glycogen synthase kinase-3 beta (Homo sapiens, UniProt P49841), sample COc1cc(F)cc(-c2cccc(Nc3nccc(-c4nccs4)n3)c2)c1 , Ki read: < 100 nM

Assay Glycogen synthase kinase-3 beta (Homo sapiens, UniProt P49841), sample Cc1cc(Nc2nc(-c3ccccc3-c3ccccc3)nc3ccccc23)n[nH]1 , Ki read: 1000 to 20000 nM

Assay Glycogen synthase kinase-3 beta (Homo sapiens, UniProt P49841), sample Cc1cc(Nc2cc(C3CC3)[nH]n2)nc(Sc2ccc3ccccc3c2)n1 , Ki read: < 100 nM

Assay Glycogen synthase kinase-3 beta (Homo sapiens, UniProt P49841), sample COCC(=O)N1CCCN(c2cc(-n3cnc(Nc4ccccc4)n3)ccn2)CC1 , Ki read: > 1000 nM

Assay Glycogen synthase kinase-3 beta (Homo sapiens, UniProt P49841), sample FC(F)(F)c1ccccc1-c1nc(Nc2n[nH]c3cccc(-n4cccc4)c23)c2ccccc2n1 , Ki read: 1000 to 20000 nM

Assay Glycogen synthase kinase-3 beta (Homo sapiens, UniProt P49841), sample N#Cc1ccc(NCCNc2nc(-c3ccccc3)nc3ccccc23)nc1 , Ki read: < 100 nM

Assay Glycogen synthase kinase-3 beta (Homo sapiens, UniProt P49841), sample Cc1cc(Nc2nc(Nc3ccc(Cl)cc3)nc3c2CCCC3)n[nH]1 , Ki read: < 100 nM

Assay Glycogen synthase kinase-3 beta (Homo sapiens, UniProt P49841), sample Cc1cc(Nc2nc(Nc3ccc4oc(=O)c5ccccc5c4c3)nc3ccccc23)n[nH]1 , Ki read: 1000 to 7000 nM

Assay Glycogen synthase kinase-3 beta (Homo sapiens, UniProt P49841), sample CC(C)(C)CC(=O)Nc1cc(-n2cnc(Nc3ccccc3)n2)ccn1 , Ki read: > 1000 nM

Assay Glycogen synthase kinase-3 beta (Homo sapiens, UniProt P49841), sample c1ccc2c(c1)CCN2c1nc(Nc2cc(C3CC3)n[nH]2)c2ccccc2n1 , Ki read: < 100 nM

Assay Glycogen synthase kinase-3 beta (Homo sapiens, UniProt P49841), sample CC(=O)N1[C@H](C)CN(c2cc(-n3cnc(Nc4ccc(NC(=O)OC(C)C)cc4)n3)ccn2)C[C@@H]1C , Ki read: > 1000 nM

Assay Glycogen synthase kinase-3 beta (Homo sapiens, UniProt P49841), sample CCNc1ncc(COC)c(-c2c[nH]c(C(=O)NC(CO)c3ccccc3)c2)n1 (stereo not shown) , Ki read: > 1000 nM

Assay Glycogen synthase kinase-3 beta (Homo sapiens, UniProt P49841), sample Fc1cccc(-n2cnnc2-c2c[nH]c3ncc(-c4cccnc4)cc23)c1F , Ki read: < 200 nM

Assay Glycogen synthase kinase-3 beta (Homo sapiens, UniProt P49841), sample Clc1cccc(-c2cnoc2-c2c[nH]c3ncccc23)c1Cl , Ki read: 1000 to 12500 nM

Assay Glycogen synthase kinase-3 beta (Homo sapiens, UniProt P49841), sample Fc1ccc2[nH]nc(Nc3nc(-c4c(Cl)cccc4Cl)nc4ccccc34)c2c1 , Ki read: < 100 nM

Assay Glycogen synthase kinase-3 beta (Homo sapiens, UniProt P49841), sample Cc1nc(C2CCCCC2)nc(Nc2n[nH]c3ncc(F)cc23)c1C , Ki read: < 25 nM

Assay Glycogen synthase kinase-3 beta (Homo sapiens, UniProt P49841), sample Cc1ccc2[nH]nc(Nc3nc(-c4ccccc4C(F)(F)F)nc4ccccc34)c2c1 , Ki read: < 100 nM
